Target: T1, Chryseobacterium sp-62563 deamidase polypeptide (second polypeptide, deamidase domain), wildtype (Chryseobacterium sp-62563)
T1 sequence: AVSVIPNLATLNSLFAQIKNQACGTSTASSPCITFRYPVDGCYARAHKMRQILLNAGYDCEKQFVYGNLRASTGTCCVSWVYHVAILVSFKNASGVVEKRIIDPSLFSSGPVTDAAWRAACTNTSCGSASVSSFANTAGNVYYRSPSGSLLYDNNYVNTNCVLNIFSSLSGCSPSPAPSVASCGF
Assay: cell-based or functional assay
parameter_measured: Relative activity of maturated deamidase (% initial rate)

I. Chryseobacterium sp-62563 propeptide F19L (protein) NQDPNLVAKESNETAMKDLGKTVPVGIEKEDGKFKISFMVTAQPYEIKDSKENAAYISMIKTAVENETPIHVFLKANTNEIAKVDKATDDDIRYFKSVFTKEVKEENRK
II. Chryseobacterium sp-62563 propeptide K101W (protein) NQDPNLVAKESNETAMKDFGKTVPVGIEKEDGKFKISFMVTAQPYEIKDSKENAAYISMIKTAVENETPIHVFLKANTNEIAKVDKATDDDIRYFKSVFTWEVKEENRK
Lab note: record which item had the higher Relative activity of maturated deamidase (% initial rate), I or II . // caller expects the label of the chosen entry
II
(II: 54, I: 33)
